Property: composite z-score; scope: individual molecules
test: COS7 lysate on small-molecule microarray, probe aHis, 635 nm (AID 1123); conditions: COS7 cell lysate, fluorescence, higher = more signal;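 further: z-score combines 667nm fluorescence intensity with signal-to-noise per printed compound spot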
result_type: composite z-score

molecule=C=CCNC(=O)[C@H]1[C@@H]2C(=O)O[C@@H](c3ccccc3)[C@@H](c3ccccc3)N2[C@@H](c2ccccc2OCCO)[C@]12C(=O)N(C(=O)OCCOC)c1ccccc12 obs_value=1.96
molecule="O=C1OCCC=C[C@H]2OC34C=CCN(CCN5CCOCC5)C(=O)[C@H]3N(CCCO)C(=O)[C@@H]4C12 (some centres undefined)" obs_value=1.2
molecule="CCCCC(O)C1C=CC2C(=O)NC(=O)C2N1Nc1ccc(Cl)cc1Cl (centres undefined)" obs_value=2.54
molecule="NC(=O)N1C(=O)C2C(C1=O)C1C=C(CCCO)C2C(c2ccc(CN3CCCC3)cc2)N1Cc1cccc(OC(F)(F)F)c1 (centres undefined)" obs_value=0.904

---

molecular target: NADPH oxidase 4 (Homo sapiens); assay: NOX4-dependent H2O2 signal modulators, primary screen, NOX inhibitor project, cell-based, HEK293-NOX4, tetracycline-induced, Amplex Red fluorescence (AID 1160); details: 45 min, higher = more signal, called active from +8 up or from −8 down
// reported z-score per item
result_type: z-score

compound=C=CCNC(=O)[C@@H]1[C@H]2C(=O)O[C@H](c3ccccc3)[C@H](c3ccccc3)N2[C@H](c2ccc(O)cc2)[C@@]12C(=O)Nc1ccc(C#CC3(O)CCCCCC3)cc12 result_type=z-score obs_value=0.534
compound=CC(C)CNC(=O)[C@@]1(C)c2ccccc2C(=O)N(Cc2cc(F)cc(C(F)(F)F)c2)[C@H]1c1ccc(CO)cc1 result_type=z-score obs_value=0.261
compound=COC(=O)c1c(CC[C@@H](CO)NC(=O)N[C@@H](Cc2ccccc2)Cn2cc(-c3cncn3C)nn2)oc(C(C)=O)c1C(=O)OC result_type=z-score obs_value=-2.01
compound="CCCCN1CC=CC23O[C@@H]4C=CCOC(=O)[C@@H]4[C@H]2C(=O)N(C(CO)C(C)C)[C@@H]3C1=O (some centres not stated)" result_type=z-score obs_value=0.17
compound=COc1ccc(CCNC(=O)[C@@]2(Sc3ccc(C)cc3)CC(=O)N(Cc3cc(C(F)(F)F)cc(C(F)(F)F)c3)[C@@H]2c2ccc(CO)cc2)cc1 result_type=z-score obs_value=0.539
compound=COCCOC(=O)N1C(=O)[C@@]2(c3cc(C#CCC(C(=O)OC)C(=O)OC)ccc31)[C@H](C(=O)N1CCCCCCC1)[C@H]1C(=O)O[C@H](c3ccccc3)[C@H](c3ccccc3)N1[C@@H]2c1ccccc1OCCO result_type=z-score obs_value=-0.194
compound=O=C1c2ccccc2[C@@]2(Cc3ccccc3N(Cc3ccccc3)C2=O)[C@H](c2ccc(CO)cc2)N1Cc1ccccc1 result_type=z-score obs_value=0.572

---

target: Fibroblast growth factor 2 (Homo sapiens) (UniProt P09038); test: FGF2 binders on small-molecule microarrays, primary screen, biochemical, small-molecule microarray, 635/667 nm fluorescence (AID 1133); settings: small-molecule microarray binding, FGF2, fluorescence 635/667; higher = more signal
Sequence (P09038 whole entry, looked up): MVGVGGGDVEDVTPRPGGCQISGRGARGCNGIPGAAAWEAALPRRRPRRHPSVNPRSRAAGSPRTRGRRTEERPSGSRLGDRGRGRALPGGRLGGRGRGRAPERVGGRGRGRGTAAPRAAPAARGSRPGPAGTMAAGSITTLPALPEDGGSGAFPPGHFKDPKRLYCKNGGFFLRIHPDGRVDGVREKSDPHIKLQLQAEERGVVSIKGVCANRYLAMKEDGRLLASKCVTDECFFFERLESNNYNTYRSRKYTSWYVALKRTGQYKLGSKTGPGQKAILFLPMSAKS
Here, each record is paired with measured composite z-score data.
result_type: composite z-score

compound=COCCOC(=O)N1C(=O)[C@@]2(c3cc(C#CC4=CCCCC4)ccc31)[C@H](c1ccc(OCCO)cc1)N1[C@H](c3ccccc3)[C@H](c3ccccc3)OC(=O)[C@H]1[C@@H]2C(=O)N1CCCCCCC1 obs_value=1.42
compound=COCCOC(=O)N1C(=O)[C@@]2(c3cc(C#CCNC(N)=O)ccc31)[C@H](C(=O)NC[C@H](O)c1ccccc1)[C@H]1C(=O)O[C@H](c3ccccc3)[C@H](c3ccccc3)N1[C@@H]2c1ccc(OCCO)cc1 obs_value=0.581
compound=CCCC=C(CCC)[C@@H](NC(=O)c1ccco1)c1ccc(C(=O)OC)cc1 obs_value=-0.181
compound="COc1ccc(NN2C(C(O)c3ccc(OC)cc3)C=CC3C(=O)N(C4CCCCC4)C(=O)C32)cc1 (stereo not given)" obs_value=-0.0659
compound=[N-]=[N+]=Nc1ccccc1[C@@H]1OC(c2ccc(OCCCO)cc2)=N[C@]1(Cc1ccccc1)C(N)=O obs_value=-0.425
compound=C=CC[C@@]12N=C(c3ccc(OCCCO)cc3)O[C@@H]1c1ccccc1N(Cc1ccccc1)C2=O obs_value=1.44
compound=CN(C)CCCC[C@@H]1NC(=O)[C@H]2C[C@@H](C(=O)O)[C@@H](c3cccc(OCCO)c3)N2C1=O obs_value=0.977
compound=CCCC[C@@H]1C[C@H]1[C@@H](NC(=O)Cc1ccccc1)c1ccc(Cl)cc1 obs_value=-0.272
compound=COc1cccc(OC)c1C(=O)O[C@H]1[C@@H]2OC(=O)[C@H](Cc3cccc(Br)c3)C/C=C/C[C@@H](Cc3cccc(Br)c3)C(=O)O[C@H]2[C@@H](OC)O[C@@H]1CO obs_value=1.28
compound=CN(C)CCCCNC(=O)[C@H]1C[C@H]2C(=O)N[C@@H](Cc3ccccc3)C(=O)N2[C@H]1c1cccc(OCCO)c1 obs_value=0.694
compound=C/C=C/CN(C(=O)C#Cc1ccccc1)[C@H](CO[Si](C)(C)C(C)(C)C)c1ccccc1 obs_value=-1.25
compound=Cc1ccc(F)cc1S(=O)(=O)N[C@@H]1CCN(Cc2ccc3c(c2)OCO3)C1 obs_value=0.279
compound="CCCCC(O)C1C=CC2C(=O)NC(=O)C2N1Nc1ccccn1 (stereo not given)" obs_value=0.256
compound=COc1ccc([Si](C)(C)[C@H]2[C@H](CCO)O[C@@]3(C(=O)N(Cc4ccccc4)c4ccc(N(C=O)c5ccccc5)cc43)[C@@H]2C)cc1 obs_value=0.25
compound=COc1ccc(C#Cc2ccc3c(c2)[C@]2(C(=O)N3)[C@H](C(=O)Nc3nc4ccccc4s3)[C@H]3C(=O)O[C@H](c4ccccc4)[C@H](c4ccccc4)N3[C@@H]2c2ccc(OCCO)cc2)cc1 obs_value=0.83
